SYSTEM NAME: Voltage-gated inwardly rectifying potassium channel KCNH2 (Homo sapiens)
ASSAY DETAILS: Human Ether-a-go-go-Related Gene (hERG) channel small molecule antagonists: fluorescence cell-based qHTS assay (AID 1671200); further: nearly all actives have a fitted effect of over 50% in size
CONDITION PARAMETERS: hERG-U2OS cells, FluxOR thallium flux fluorescence; series mostly up to 76.8 µM
Results filed as inconclusive are left out. Activity calls are given as the source filed them. The call rests on the fitted dose curve; in most records, active means well fitted inhibition curve with a large enough effect in the repeat runs; inconclusive means weak or mixed curves; inactive means flat fitted curve, though single readings scatter.
Labels: active, inactive

MOLECULE	GROUP LABEL
CCCCCCCC/C=C\CCCCCCCC(=O)OC(CO)CO	inactive
CCCCC(CC)COC(=O)COc1ccc(Cl)cc1C (configuration not stated)	inactive
NC(=O)Nc1ccc(Cl)c(Cl)c1	inactive
CN1CCN(CCCN2c3ccccc3Sc3ccc(S(=O)(=O)N(C)C)cc32)CC1	active
O=S1OCCO1	inactive
Cc1cc(C(=C2C=CC(=Nc3ccc(S(=O)(=O)O)cc3S(=O)(=O)O)C=C2)c2ccc(Nc3ccc(S(=O)(=O)O)cc3)cc2)ccc1N	inactive
COC(=O)c1cc(Cl)ccc1NS(=O)(=O)C(F)(F)F	inactive
O=C(CCCCCCC(=O)Nc1ccccc1)NO	inactive
OC/C(Br)=C(\Br)CO	inactive
CCn1nc(C)c2c1C(=O)NCC(c1ccc(O)cc1)=N2	inactive
CC(C)OCC1CO1 (configuration not stated)	inactive
CSc1ccc(Oc2ccc(S(N)(=O)=O)cc2CN(C)C)cc1C	active
